All values here come from patent US20130096105A1.

// values below are reported pIC50
Molecular target: Gelatinase (MMP-2) (Homo sapiens, UniProt P08253)
Sequence (P08253 110-660): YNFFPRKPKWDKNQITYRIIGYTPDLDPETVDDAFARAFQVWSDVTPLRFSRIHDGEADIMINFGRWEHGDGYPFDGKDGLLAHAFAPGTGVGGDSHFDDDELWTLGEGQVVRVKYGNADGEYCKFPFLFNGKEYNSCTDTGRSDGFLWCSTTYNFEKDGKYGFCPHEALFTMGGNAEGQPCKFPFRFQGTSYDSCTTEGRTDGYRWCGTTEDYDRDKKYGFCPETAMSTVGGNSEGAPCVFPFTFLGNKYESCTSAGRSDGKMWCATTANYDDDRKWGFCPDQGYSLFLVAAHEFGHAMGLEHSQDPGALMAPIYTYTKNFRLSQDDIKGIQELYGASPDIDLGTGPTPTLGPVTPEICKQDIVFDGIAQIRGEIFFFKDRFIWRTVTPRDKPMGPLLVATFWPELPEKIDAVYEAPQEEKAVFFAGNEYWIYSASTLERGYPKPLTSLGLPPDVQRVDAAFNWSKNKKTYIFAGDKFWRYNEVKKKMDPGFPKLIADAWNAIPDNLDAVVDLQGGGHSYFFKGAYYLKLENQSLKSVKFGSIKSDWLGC
Test: Gelatinase (MMP-2) inhibitory activity, fluorogenic peptide substrate cleavage
Type: biochemical
Details: read-out: MMP02 IC50
pIC50: −log10 of the molar value.
Endpoint: pIC50

{"Molecule": "COc1ccc(C(=O)c2ccc(Cl)c(S(=O)(=O)NCCc3ccc([N+](=O)[O-])cc3)c2)cc1", "Result modifier": "<", "Value measured": 4.52}
{"Molecule": "CC(C)COc1ccc(C(=O)c2ccc(Cl)c(S(N)(=O)=O)c2)cc1 [Example 58]", "Result modifier": "<", "Value measured": 4.52}
{"Molecule": "COc1ccc(-c2c[nH]c3cc(C(=O)c4ccc(Cl)c(S(N)(=O)=O)c4)ccc23)cc1", "Result modifier": "=", "Value measured": 4.62}
{"Molecule": "CCc1cc(-c2c[nH]c3cc(C(=O)c4ccc(Cl)c(S(N)(=O)=O)c4)ccc23)ccn1", "Result modifier": "=", "Value measured": 5.45}
{"Molecule": "CN(C)c1ccc(C(=O)c2ccc(Cl)c(S(N)(=O)=O)c2)cc1", "Result modifier": "=", "Value measured": 6.57}
{"Molecule": "CCCNC(=O)c1ccc(C(=O)c2ccc(Cl)c(S(N)(=O)=O)c2)cc1", "Result modifier": "<", "Value measured": 4.52}
{"Molecule": "NS(=O)(=O)c1cc(C(=O)c2ccc(-c3ccnc(Cl)c3)cc2)ccc1Cl", "Result modifier": "=", "Value measured": 6.52}
{"Molecule": "NS(=O)(=O)c1cc(C(=O)c2ccc(-c3ccc(C=O)cc3)cc2)ccc1Cl", "Result modifier": "=", "Value measured": 6.74}

* * *

Biological target: Collagenase-3 (MMP-13) (Homo sapiens)
Assay: Collagenase-3 (MMP-13) inhibitory activity, fluorogenic peptide substrate cleavage
Assay type: biochemical
Details: read-out: MMP13 IC50
pIC50: −log10 of the molar value.

{"Compound": "Cc1cc(-c2c[nH]c3cc(C(=O)c4ccc(C)c(S(N)(=O)=O)c4)ccc23)ccn1", "Target of assay": "Collagenase-3 (MMP-13) (Homo sapiens)", "pIC50": 7.70}
{"Compound": "NS(=O)(=O)c1cc(C(=O)c2ccccc2)ccc1Cl [Example 49, 5-Benzoyl-2-chloro-benzenesulfonamide]", "Target of assay": "Collagenase-3 (MMP-13) (Homo sapiens)", "pIC50": 4.61}
{"Compound": "COc1ccc(C(=O)c2cc(F)c(F)c(S(N)(=O)=O)c2)cc1", "Target of assay": "Collagenase-3 (MMP-13) (Homo sapiens)", "pIC50": 5.24}
{"Compound": "CCCCCOc1ccc(C(=O)c2ccc(Cl)c(S(N)(=O)=O)c2)cc1", "Target of assay": "Collagenase-3 (MMP-13) (Homo sapiens)", "pIC50": 4.87}
{"Compound": "Cc1cc(Br)ccc1C(=O)c1ccc(Cl)c(S(N)(=O)=O)c1", "Target of assay": "Collagenase-3 (MMP-13) (Homo sapiens)", "pIC50": 6.68}
{"Compound": "NS(=O)(=O)c1cc(C(=O)c2ccc(OCCCc3ccccc3)cc2)ccc1Cl", "Target of assay": "Collagenase-3 (MMP-13) (Homo sapiens)", "pIC50": 5.91}
{"Compound": "Cc1ccc(-c2ccc(C(=O)c3ccc(Cl)c(S(N)(=O)=O)c3)cc2)cc1", "Target of assay": "Collagenase-3 (MMP-13) (Homo sapiens)", "pIC50": 5.99}
{"Compound": "NS(=O)(=O)c1cc(C(=O)c2ccc(C(=O)Nc3ccccc3)cc2)ccc1Cl", "Target of assay": "Collagenase-3 (MMP-13) (Homo sapiens)", "pIC50": 5.33}
{"Compound": "CCCCCCOc1ccc(C(=O)c2ccc(Cl)c(S(N)(=O)=O)c2)cc1", "Target of assay": "Collagenase-3 (MMP-13) (Homo sapiens)", "pIC50": 6.07}
{"Compound": "O=C(c1ccc(-c2cccc(CO)c2)cc1)c1ccc(Cl)c(S(=O)(=O)O)c1", "Target of assay": "Collagenase-3 (MMP-13) (Homo sapiens)", "pIC50": 5.85}
{"Compound": "CS(=O)(=O)c1cccc(-c2c[nH]c3cc(C(=O)c4ccc(Cl)c(S(N)(=O)=O)c4)ccc23)c1", "Target of assay": "Collagenase-3 (MMP-13) (Homo sapiens)", "pIC50": 6.41}
{"Compound": "Cc1ccc(C(=O)c2ccc3cc[nH]c3c2)cc1S(N)(=O)=O", "Target of assay": "Collagenase-3 (MMP-13) (Homo sapiens)", "pIC50": 7.00}
{"Compound": "NS(=O)(=O)c1cc(C(=O)c2ccc(-c3ccccc3)cc2)ccc1Cl [Example 76]", "Target of assay": "Collagenase-3 (MMP-13) (Homo sapiens)", "pIC50": 4.92}
{"Compound": "COc1ccc(C(=O)c2ccc(Cl)c(S(=O)(=O)NCCc3ccccc3)c2)cc1", "Target of assay": "Collagenase-3 (MMP-13) (Homo sapiens)", "pIC50": 5.52}
{"Compound": "NS(=O)(=O)c1cc(C(=O)c2ccc(-c3ccnc(Cl)c3)cc2)ccc1Cl", "Target of assay": "Collagenase-3 (MMP-13) (Homo sapiens)", "pIC50": 6.42}
{"Compound": "NS(=O)(=O)c1cc(C(=O)c2ccc(F)cc2)ccc1Cl", "Target of assay": "Collagenase-3 (MMP-13) (Homo sapiens)", "pIC50": 4.73}
{"Compound": "NS(=O)(=O)c1cc(C(=O)c2ccc(C(=O)NCc3ccccc3)cc2)ccc1Cl", "Target of assay": "Collagenase-3 (MMP-13) (Homo sapiens)", "pIC50": 6.08}
{"Compound": "NS(=O)(=O)c1cc(C(=O)c2cc[nH]c2)ccc1Cl", "Target of assay": "Collagenase-3 (MMP-13) (Homo sapiens)", "pIC50": 5.21}
{"Compound": "NS(=O)(=O)c1cc(C(=O)c2ccc(OC(F)(F)F)cc2)ccc1Cl", "Target of assay": "Collagenase-3 (MMP-13) (Homo sapiens)", "pIC50": 5.28}
{"Compound": "COCCCc1cc(-c2c[nH]c3cc(C(=O)c4cccc(S(N)(=O)=O)c4)ccc23)ccn1", "Target of assay": "Collagenase-3 (MMP-13) (Homo sapiens)", "pIC50": 7.12}
{"Compound": "CC(C)COc1ccc(C(=O)c2ccc(Cl)c(S(N)(=O)=O)c2)cc1 [Example 17]", "Target of assay": "Collagenase-3 (MMP-13) (Homo sapiens)", "pIC50": 5.43}
{"Compound": "NS(=O)(=O)c1cc(C(=O)c2ccc(C3CCCC3)cc2)ccc1Cl", "Target of assay": "Collagenase-3 (MMP-13) (Homo sapiens)", "pIC50": 5.35}
{"Compound": "COC(=O)c1ccc(-c2ccc(C(=O)c3ccc(Cl)c(S(N)(=O)=O)c3)cc2)cc1", "Target of assay": "Collagenase-3 (MMP-13) (Homo sapiens)", "pIC50": 6.62}
{"Compound": "NS(=O)(=O)c1cc(C(=O)c2ccc3c(CCC4CCCC4)n[nH]c3c2)ccc1Cl", "Target of assay": "Collagenase-3 (MMP-13) (Homo sapiens)", "pIC50": 6.89}
{"Compound": "NS(=O)(=O)c1cc(C(=O)c2ccc(-c3cccnc3)cc2)ccc1Cl", "Target of assay": "Collagenase-3 (MMP-13) (Homo sapiens)", "pIC50": 5.12}
{"Compound": "Cc1ccc(C(=O)c2ccc(Cl)c(S(N)(=O)=O)c2)c(Br)c1", "Target of assay": "Collagenase-3 (MMP-13) (Homo sapiens)", "pIC50": 7.10}
{"Compound": "CC(=O)c1cccc(-c2c[nH]c3cc(C(=O)c4ccc(Cl)c(S(N)(=O)=O)c4)ccc23)c1", "Target of assay": "Collagenase-3 (MMP-13) (Homo sapiens)", "pIC50": 6.23}
{"Compound": "NS(=O)(=O)c1cc(C(=O)c2ccc(-c3ccc4ccccc4c3)cc2)ccc1Cl", "Target of assay": "Collagenase-3 (MMP-13) (Homo sapiens)", "pIC50": 5.07}
{"Compound": "NS(=O)(=O)c1cc(C(=O)c2ccc(O)cc2F)ccc1Cl", "Target of assay": "Collagenase-3 (MMP-13) (Homo sapiens)", "pIC50": 4.67}
{"Compound": "NS(=O)(=O)c1cc(C(=O)c2ccc3c(-c4ccncc4)c[nH]c3c2)ccc1Cl", "Target of assay": "Collagenase-3 (MMP-13) (Homo sapiens)", "pIC50": 7.05}
{"Compound": "NS(=O)(=O)c1cc(C(=O)c2ccc(-c3cccc(C(F)(F)F)c3)cc2)ccc1Cl", "Target of assay": "Collagenase-3 (MMP-13) (Homo sapiens)", "pIC50": 4.59}
{"Compound": "CCOC(=O)N1CCc2[nH]c3cc(C(=O)c4ccc(Cl)c(S(N)(=O)=O)c4)ccc3c2C1", "Target of assay": "Collagenase-3 (MMP-13) (Homo sapiens)", "pIC50": 6.44}
{"Compound": "NS(=O)(=O)c1cc(C(=O)c2ccc3c(-c4ccnc(Cl)c4)c[nH]c3c2)ccc1Cl", "Target of assay": "Collagenase-3 (MMP-13) (Homo sapiens)", "pIC50": 6.60}
{"Compound": "NS(=O)(=O)c1cc(C(=O)c2ccc3c(-c4ccnc(OCCN5CCOCC5)c4)c[nH]c3c2)ccc1Cl", "Target of assay": "Collagenase-3 (MMP-13) (Homo sapiens)", "pIC50": 6.82}
{"Compound": "CCCNC(=O)c1ccc(C(=O)c2ccc(Cl)c(S(N)(=O)=O)c2)cc1", "Target of assay": "Collagenase-3 (MMP-13) (Homo sapiens)", "pIC50": 5.59}
